ASSAY TARGET: EGFR L858R/C797S (Homo sapiens, UniProt P00533, C797S/L858R)
Sequence (P00533 25-1210 C797S/L858R): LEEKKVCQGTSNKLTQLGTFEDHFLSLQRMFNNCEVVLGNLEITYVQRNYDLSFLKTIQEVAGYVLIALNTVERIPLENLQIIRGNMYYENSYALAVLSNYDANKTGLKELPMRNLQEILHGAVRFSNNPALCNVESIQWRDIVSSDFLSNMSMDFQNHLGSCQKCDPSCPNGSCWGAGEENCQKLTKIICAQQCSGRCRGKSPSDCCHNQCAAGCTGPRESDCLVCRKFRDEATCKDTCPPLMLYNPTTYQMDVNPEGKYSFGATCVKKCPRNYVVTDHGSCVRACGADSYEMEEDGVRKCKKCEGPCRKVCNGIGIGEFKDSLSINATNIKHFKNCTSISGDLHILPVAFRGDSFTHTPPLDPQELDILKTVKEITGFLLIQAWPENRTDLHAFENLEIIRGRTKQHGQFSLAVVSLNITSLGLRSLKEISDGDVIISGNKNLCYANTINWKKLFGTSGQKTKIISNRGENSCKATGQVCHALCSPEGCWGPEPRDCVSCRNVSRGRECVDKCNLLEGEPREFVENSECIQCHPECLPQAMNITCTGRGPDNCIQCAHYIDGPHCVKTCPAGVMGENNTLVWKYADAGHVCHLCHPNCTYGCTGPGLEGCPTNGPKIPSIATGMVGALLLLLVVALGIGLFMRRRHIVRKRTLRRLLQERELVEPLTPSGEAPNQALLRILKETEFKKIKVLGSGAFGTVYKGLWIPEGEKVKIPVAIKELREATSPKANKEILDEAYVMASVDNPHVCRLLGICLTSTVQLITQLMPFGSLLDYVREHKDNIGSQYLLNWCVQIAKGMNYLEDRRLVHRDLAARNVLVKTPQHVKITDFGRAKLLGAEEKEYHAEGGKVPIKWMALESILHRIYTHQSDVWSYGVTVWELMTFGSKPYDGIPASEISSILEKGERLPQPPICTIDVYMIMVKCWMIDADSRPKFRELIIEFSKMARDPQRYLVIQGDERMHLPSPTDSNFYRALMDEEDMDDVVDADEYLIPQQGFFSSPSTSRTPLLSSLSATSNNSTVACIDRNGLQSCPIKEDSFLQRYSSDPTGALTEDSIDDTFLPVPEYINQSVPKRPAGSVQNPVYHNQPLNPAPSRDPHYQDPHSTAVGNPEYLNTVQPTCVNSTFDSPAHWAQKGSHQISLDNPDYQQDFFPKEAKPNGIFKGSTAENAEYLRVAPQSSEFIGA
ASSAY DETAILS: Biochemical EGFR kinase inhibition assay (Lance Ultra TR-FRET), double mutant L858R/C797S
PROTOCOL CONDITIONS: IC50 L858R/C797S (nM), 100 μM ATP
MEASURE NAME: IC50 (nM)

>>> observed_result("O=S(=O)(C1CC1)n1cc(-c2nccc(Nc3cc(N[C@H]4CC[C@@H](O)CC4)c(C#CC4C[C@@H]5CC[C@@H]4O5)cn3)n2)cn1 (stereo partly drawn) [Example 427]")
80.1
>>> observed_result("CN(C)CC1(F)CCN(c2cc(Nc3ccnc(-c4cnn(S(=O)(=O)C5CC5)c4)n3)ncc2C#Cc2cnn(C3CC3)c2)CC1 [Example 300]")
288

P. CCc1cnc(C#Cc2cnc(Nc3ccnc(-c4cnn(S(=O)(=O)C5CC5)c4)n3)cc2N[C@@H]2CCC[C@H](O)C2)s1 [Example 168]
Q. O=S(=O)(C1CC1)n1cc(-c2nccc(Nc3cc(NC[C@H]4CC[C@H](O)CC4)c(C#CC4CC5CCC4O5)cn3)n2)cn1 (stereo partly drawn) [Example 423]
R. CC1(CO)CCN(c2cc(Nc3ccnc(-c4cnn(S(=O)(=O)C5CC5)c4)n3)ncc2C#CC2CCCO2)CC1 (stereo not drawn) [Example 378]
S. Cc1nc(C#Cc2cnc(Nc3ccnc(-c4cnn(S(=O)(=O)C5CC5)c4)n3)cc2N2CCC(O)CC2)cs1 [Example 211]
Rank ascending by IC50. API: response body holds the labels in the requested order.
R, S, Q, P
(R: 34 nM, S: 66.2 nM, Q: 1770 nM, P: 8370 nM)
